assay: NCI Yeast Anticancer Drug Screen. Data for the mlh1 rad18 strain (AID 175); conditions: S. cerevisiae mlh1 rad18 strain growth inhibition; at 50.0 µM (retest, dose inferred, filed as 5.0); stronger effect = higher value
The panel holds about 79,000 compounds, 15% with a hit somewhere; the sample as a whole holds those more often.
property.measured: growth inhibition (%)
Express the result in % but write the number alone.

Answered examples (3):
Query :: Using the record for CNC(=O)OCCC(OC(=O)NC)C1CCC2C3CC=C4CC(OC(=O)NC)CCC4(C)C3CCC12C (centres undefined) , state its measured growth inhibition.
Result :: 91

Query :: Name the recorded growth inhibition of the compound listed here: CC(=O)OCc1c2ccccc2c(C)c2c1cc(F)c1ccccc12
Result :: 88

Query :: Using the record for N#CC(=C1C=CC(=NO)C=C1)c1cccc2ccccc12 , state its measured growth inhibition.
Result :: 91

Then this compound:
Query :: Identify measured growth inhibition associated with Cc1cc(SCC(=O)c2ccc(Br)cc2)cc(C)[o+]1
Result :: 92
